target: Protein translocase subunit SecA (Escherichia coli (strain K12)) (UniProt P10408); assay: Assay to Identify E. coli SecA ATPase Inhibitors; format: functional; parameters: scale not given: direction of the effect not stated beside the values; details: 30 µM
Sequence (P10408 whole entry): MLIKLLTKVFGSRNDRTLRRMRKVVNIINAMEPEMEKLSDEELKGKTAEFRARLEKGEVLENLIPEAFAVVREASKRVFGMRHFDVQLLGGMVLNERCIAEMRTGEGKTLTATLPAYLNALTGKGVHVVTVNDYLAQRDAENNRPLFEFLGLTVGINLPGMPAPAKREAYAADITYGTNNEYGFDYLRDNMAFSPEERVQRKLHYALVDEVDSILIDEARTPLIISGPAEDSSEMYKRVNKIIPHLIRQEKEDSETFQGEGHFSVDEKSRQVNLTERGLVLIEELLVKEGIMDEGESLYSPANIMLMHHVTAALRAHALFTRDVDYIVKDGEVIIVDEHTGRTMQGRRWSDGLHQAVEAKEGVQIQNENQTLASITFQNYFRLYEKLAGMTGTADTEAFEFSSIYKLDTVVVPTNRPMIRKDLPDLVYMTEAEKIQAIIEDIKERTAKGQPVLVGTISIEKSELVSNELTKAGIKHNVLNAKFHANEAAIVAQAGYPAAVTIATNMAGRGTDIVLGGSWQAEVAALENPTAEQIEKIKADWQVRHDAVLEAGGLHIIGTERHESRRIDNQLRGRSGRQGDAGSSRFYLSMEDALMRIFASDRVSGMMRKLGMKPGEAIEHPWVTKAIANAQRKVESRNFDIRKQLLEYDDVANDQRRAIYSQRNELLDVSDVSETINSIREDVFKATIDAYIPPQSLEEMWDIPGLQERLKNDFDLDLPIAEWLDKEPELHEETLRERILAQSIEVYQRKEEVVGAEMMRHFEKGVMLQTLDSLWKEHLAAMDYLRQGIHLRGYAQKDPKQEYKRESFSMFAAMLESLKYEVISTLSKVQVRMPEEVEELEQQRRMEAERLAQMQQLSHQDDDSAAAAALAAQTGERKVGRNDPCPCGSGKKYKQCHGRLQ
Results with a measured potency or affinity are listed apart.
Recorded Percent Effect values for a group of compounds are listed next.
Your reply should be a number followed by the unit it is expressed in.

- compound: "CC(C)(C)C(=O)N1CCC(c2nc(O)cc(-c3ccccn3)n2)CC1"
  Percent Effect: "-0.499%"
- compound: "CCc1nc(C)c(C(=O)NCCN2CCN(C(C)=O)CC2)s1"
  Percent Effect: "-2.42%"
- compound: "Cc1nc2c(c(C)c1CC(=O)NCc1cccc(C#N)c1)c(=O)[nH]n2C"
  Percent Effect: "-4.87%"
- compound: "Cc1cnn(CC2CN(CC(=O)Nc3nnc(C)s3)CCO2)c1 (stereo unspecified)"
  Percent Effect: "-5.89%"
- compound: "CCc1cc(C(=O)N2CCCC2c2nc(C)c(F)c(O)n2)on1 (stereo unspecified)"
  Percent Effect: "1.86%"

Q. Recorded Percent Effect for CC1N(CC2CC2)C(=O)COC12CCN(Cc1nccs1)CC2 (stereo unspecified) , please?
A. -2.73%

Q. Using the record for CCS(=O)(=O)CC(=O)NC(c1ccc(F)cc1)C1CCCC1 (stereo unspecified) , report its Percent Effect.
A. -5.43%

---

Molecular target: Ubiquitin-activating enzyme e1, putative (Leishmania donovani (strain BPK282A1))
Sequence (whole entry): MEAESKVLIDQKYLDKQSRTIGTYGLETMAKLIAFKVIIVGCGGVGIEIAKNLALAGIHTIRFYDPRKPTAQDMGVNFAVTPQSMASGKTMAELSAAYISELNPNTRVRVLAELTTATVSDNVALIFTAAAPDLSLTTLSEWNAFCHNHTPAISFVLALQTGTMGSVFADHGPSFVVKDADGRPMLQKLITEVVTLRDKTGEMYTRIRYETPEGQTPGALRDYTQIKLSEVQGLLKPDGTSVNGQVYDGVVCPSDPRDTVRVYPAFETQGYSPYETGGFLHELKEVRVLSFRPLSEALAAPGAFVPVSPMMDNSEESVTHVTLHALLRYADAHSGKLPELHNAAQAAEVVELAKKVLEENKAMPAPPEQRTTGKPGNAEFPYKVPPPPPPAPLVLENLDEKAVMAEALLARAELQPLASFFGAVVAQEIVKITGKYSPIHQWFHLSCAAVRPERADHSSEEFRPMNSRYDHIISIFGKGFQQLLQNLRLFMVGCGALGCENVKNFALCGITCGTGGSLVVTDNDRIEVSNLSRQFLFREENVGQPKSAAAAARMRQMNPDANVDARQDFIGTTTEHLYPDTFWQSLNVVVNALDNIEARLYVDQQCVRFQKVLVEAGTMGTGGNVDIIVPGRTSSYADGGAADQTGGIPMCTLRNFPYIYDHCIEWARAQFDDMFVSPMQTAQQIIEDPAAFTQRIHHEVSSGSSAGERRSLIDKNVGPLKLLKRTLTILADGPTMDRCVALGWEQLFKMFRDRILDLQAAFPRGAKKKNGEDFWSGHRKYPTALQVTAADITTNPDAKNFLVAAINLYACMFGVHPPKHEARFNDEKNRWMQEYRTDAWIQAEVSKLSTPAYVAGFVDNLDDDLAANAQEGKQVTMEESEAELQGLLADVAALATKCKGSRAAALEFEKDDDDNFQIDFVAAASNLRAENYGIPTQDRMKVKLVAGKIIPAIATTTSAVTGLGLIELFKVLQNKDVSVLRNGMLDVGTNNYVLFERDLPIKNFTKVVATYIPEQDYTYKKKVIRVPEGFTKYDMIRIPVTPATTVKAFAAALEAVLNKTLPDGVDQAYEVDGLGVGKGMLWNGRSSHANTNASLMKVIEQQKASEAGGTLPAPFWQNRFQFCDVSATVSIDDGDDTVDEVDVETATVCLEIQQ
Assay: Leishmania donovani Ubiquitin Activating Enzyme (LdE1)
Format: functional
Set-up: scale not given: direction of the effect not stated beside the values
Conditions: 30 µM
Results with a measured potency or affinity are listed apart.
parameter measured: Percent Effect (%)
Please state the figure in %; there is no need to write the unit.

The following molecules have reported results that may help.
- molecule: "Cc1ccc(CN2CCn3cc(CN(C)Cc4ccco4)nc3C2)o1"
  Percent Effect, %: 15.6
- molecule: "Cc1cc(C2CCCN(CCCS(=O)(=O)c3ccccc3)C2)n[nH]1 (stereo not drawn)"
  Percent Effect, %: 15.2
- molecule: "CCS(=O)(=O)NC(C(=O)NC)c1ccc(F)c(F)c1 (stereo not drawn)"
  Percent Effect, %: 2.7
- molecule: "CCC(CC)c1cc(CNC(=O)N2CCOCC2CC)on1 (stereo not drawn)"
  Percent Effect, %: 0
- molecule: "Cc1ccccc1N1CCN(C(=O)c2ccc[nH]2)C(C)C1 (stereo not drawn)"
  Percent Effect, %: 2.7

Q. What measured Percent Effect goes with Cc1nc(C)n(CC2CCCN2Cc2cn3c(C)cccc3n2)n1 (stereo not drawn) ?
A. 2.67

Q. Give its Percent Effect value. Item: CCN(CC1CCOC1)C(=O)Nc1ccc(N2CCCC2)nc1 (stereo not drawn)
A. 12.8

Q. Returns the measured Percent Effect for the input molecule. Input: O=C(NCCn1ccnc1)N1CCN(Cc2cccs2)CC1
A. 18.2

// data source = ChEMBL document CHEMBL3988442
